measuredOn: Scavenger receptor class B member 1 (Mus musculus)
assayExplanation: enhancers of DiI-HDL lipid transfer via SR-BI – cell-based, ldlA[mSR-BI] CHO, DiI fluorescence, cherry-pick, dose response (AID 602191);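 note: cell fluorescence from internalized DiI-labeled HDL after washing; 0% = median of DMSO wells and 100% = twice the DMSO signal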
conditionInfo: ldlA[mSR-BI] CHO cells, 3 h, at 35 µM (top of the series)
quantityKind: activation (HDL uptake increase) (%)
Write the answer as a number in %, unit excluded.

Kindly note the recorded activation (HDL uptake increase) for "CN1CCN(C(=O)C2CCN(S(=O)(=O)c3ccc4c(c3)oc(=O)n4C)CC2)CC1" , which is -0.287

activation (HDL uptake increase) reading for CCOC(=O)C1CCCN(S(=O)(=O)c2ccc(S(=O)(=O)N3CCCC3)cc2)C1 (configuration not stated) : -3.5

For record "CCOC(=O)c1csc(NC(=O)CN2CCN(C)CC2)n1" the listed activation (HDL uptake increase) is 10.4

CN(C(=O)COC(=O)c1cccc(S(=O)(=O)N2CCOCC2)c1)C1CCS(=O)(=O)C1 (configuration not stated) has a reported activation (HDL uptake increase) of 5.01

Recorded activation (HDL uptake increase) (molecule "C=CC[C@@H](CC(=O)N[C@@H](CO)Cc1ccccc1)C(=O)N[C@H](COC(=O)[C@@H](CC=C)CC(=O)OC(C)(C)C)Cc1c[nH]c2ccccc12" ): 65.3

Quick note, activation (HDL uptake increase) for "Clc1ccc2nc(CN3CCCCCC3)cn2c1" landed at 0.923

The molecule listed as "Cc1ccc(-c2csc(=Nc3cccnc3)n2CCCN2CCCC2=O)cc1C" shows activation (HDL uptake increase) equal to -13.4

The value of activation (HDL uptake increase) measured for the molecule CCOC(=O)C1CCCN(C(=S)Nc2cccc(Cl)c2C)C1 (configuration not stated) turned out to be -3.98

Quick note, activation (HDL uptake increase) for "O=C(Cn1c(=O)cnc2ccccc21)NNC(=O)c1ccc(Cl)cc1" landed at -5.85

For reference, reported activation (HDL uptake increase) for CC(C)=C1C2CCC1C(C(=O)NCCc1ccccc1)C2C(=O)O (configuration not stated) stands at -7.43

Record "Cc1ncc(CN2CCC(n3nccc3NC(=O)c3ccccc3)CC2)s1" . Reported activation (HDL uptake increase): 8.83

Entry "O=S(=O)(c1ccccc1F)N1CCN(Cc2cc3c(cc2Br)OCCO3)CC1" , activation (HDL uptake increase) reported as -16.4

Briefly, activation (HDL uptake increase) measured for "COC(=O)[C@@]12CCCCN1[C@H](c1ccc(-c3ccc(C(C)=O)cc3)c(OC)c1)[C@@H]1C(=O)N(C)C(=O)[C@@H]12" : -14

The molecule listed as CCN(CC)C(=O)C1CC(=O)N(c2ccc(OC)cc2)C1c1ccc(OC)cc1 (configuration not stated) has a reported activation (HDL uptake increase) of -8.42

Lookup result for C/C=C(\C)C(=O)OC1CC(C)(C)C[C@H]2C3=CC[C@@H]4[C@@]5(C)CCC(O[C@@H]6O[C@@H](C(=O)O)[C@@H](O)C(O[C@@H]7OC[C@H](O)[C@@H](O)[C@@H]7O[C@@H]7OC(CO)C(O)[C@@H](O)[C@@H]7O)C6O[C@@H]6OC(CO)C(O)C(O)C6O)[C@@](C)(CO)[C@@H]5CC[C@]4(C)[C@]3(C)CC(O)[C@@]12CO (some centres not stated) ; measured activation (HDL uptake increase): -2.08

Looking up COc1ccc(-n2nc3c(c2NC(=O)c2ccc(S(=O)(=O)N4CCOCC4)cc2)CS(=O)C3)cc1 (configuration not stated) , I see its activation (HDL uptake increase) listed as -10.8

Looking up CCc1ccc(C(=O)CN2C(=O)NC(C)(CCc3ccccc3)C2=O)cc1 (configuration not stated) , I found its activation (HDL uptake increase) recorded as -8.25

Field activation (HDL uptake increase) (entry "Cc1ccc(OCCC(=O)OCC(=O)NNC(=O)c2ccccc2)cc1" ) reads 8.09

The reported activation (HDL uptake increase) of the molecule Cc1cc(OCC(=O)OCC(=O)NC2CCCCC2C)ccc1Cl (configuration not stated) was -2.13

Entry "CN(c1ccc(OCC(=O)OCC(=O)Nc2ccc([N+](=O)[O-])cc2)cc1)S(=O)(=O)c1cccs1" , activation (HDL uptake increase) reported as -13.3

Form: molecule = O=C(O)COCC(=O)N1CCc2c([nH]c3ccccc23)C1C(F)(F)F (configuration not stated) ; activation (HDL uptake increase) = -5.94

Per the record, "COc1ccccc1NC(=O)CCC(=O)OCc1cccc([N+](=O)[O-])c1" has activation (HDL uptake increase) of -10.7

According to the records, this molecule CSCCC(NC(=O)c1ccco1)C(=O)NCc1ccc(F)cc1 (configuration not stated) displays activation (HDL uptake increase) of -8.99

Entry CC(C)CN(C(=O)CN1C(=O)C2CCCCC2C1=O)c1c(N)n(Cc2ccccc2)c(=O)[nH]c1=O (configuration not stated) — recorded activation (HDL uptake increase) = -7.25

Notebook: "CN(C)CCN(C(=O)CN1C(=O)c2ccccc2C1=O)c1nc2cc3c(cc2s1)OCCO3" , activation (HDL uptake increase) read as -2.04

Field activation (HDL uptake increase) (entry "CC(C)(C)c1ccccc1NC(=O)CN1C(=O)NC2(CCCCCC2)C1=O" ) reads -12.4

For reference, reported activation (HDL uptake increase) for "COC(=O)c1oc2ccc(Br)cc2c1NC(=O)CN1CCN(C)CC1" stands at 4.26

Measured activation (HDL uptake increase), "O=S(=O)(NCCc1cn2ccccc2n1)c1ccc(-c2ccccc2)cc1" : -1.66

Briefly, activation (HDL uptake increase) measured for CCOC(=O)C1=C(COC(=O)[C@H](C)NS(=O)(=O)c2ccc(NC(C)=O)cc2)NC(=O)NC1C (some centres not stated) : -9.73

Record summary for CCCCn1c(N)c(N(CCOC)C(=O)C2CC(=O)N(Cc3ccco3)C2)c(=O)[nH]c1=O (configuration not stated) : reported activation (HDL uptake increase) = 0.156

Kindly note the recorded activation (HDL uptake increase) for C=CCn1c(SCC(=O)N(CC)C2CCS(=O)(=O)C2)nnc1-c1ccccc1 (configuration not stated) , which is -7.41

# activation (HDL uptake increase) of C=C1[C@@H](OC(C)=O)[C@]23C[C@@H]1[C@@H](OC(C)=O)CC2[C@]12C4C[C@H]3[C@H]1N(CC)C[C@]4(C)CC[C@@H]2O (some centres not stated) = -3.15

Consider "COc1ccc(N2CCN(C(=O)NC(=O)c3ccc(Cl)cc3)CC2)cc1" . Its measured activation (HDL uptake increase) is -6.64

// sample CCOC(=O)C1CCCN(C(=O)c2cc(S(=O)(=O)N3CCCCCC3)ccc2OC)C1 (configuration not stated) , its activation (HDL uptake increase) was -9.78

Entry "Cc1ccc(NC(=O)CSc2nc3nc(C)c(Br)cc3[nH]2)cc1F" , activation (HDL uptake increase) reported as -7.04

// recorded activation (HDL uptake increase) for "COc1ccccc1C(=O)NNC(=S)NC(=O)c1sc2ccccc2c1Cl" : -16.5

// sample "O=C(CCN1C(=O)c2ccccc2C1=O)C1=NN[C@@H]2C(=O)N(c3cccc(F)c3)C(=O)[C@H]12" , its activation (HDL uptake increase) was -9.51
